Reported pEC50 values for a set of binders
- targetOrTestSystem: SARS-COV-2 Wuhan Reference RBD (SARS-CoV-2, UniProt P0DTC2 319-541)
- assayName: ELISA, RBD coated
Notebook: values listed as pEC50 are -log10 of the concentration (mol/L).

{"columns": ["binder", "pEC50"],
 "data": [
  ["PP1097 MBP-5HVZ-PAPA-RN-5-H6 (VHH) VHH: QVQLVESGGGLVQPGGSLRLSCAASGSSFRILAMHWYRQAPGKNREWVAVITSNGNTYYADSVKGRFTISRDNAKNTVYLQMNSLKPEDTAVYYCNADTLDLDDGATYNYWGQGTQVTVSS", 9.60]
]}

Here is the next item to consider.
Per the records, this binder ( PP1108 MBP-5HVZ-PAPA-RN-23-H6 (VHH, Form: Dimer) VHH: QVQLVESGGGLVQPGGSLRLSCAASGGEKSISAAHWYRQAPGKEREFVAAITAASTTSYADSVKGRFTISRDNAKNTVYLQMNSLKPEDTAVYYCTAVLYDSYDYWGQGTQVTVSS ) has pEC50 equal to 8.58

Taken from patent US20240150440A1.
